subject of test: MAGL (Mus musculus)
Construct: Proteomes (mouse brain membrane fraction or cell lysates); from tissue; host or cells: mouse brain membrane fraction (or unspecified cell lysates)
Sequence (O35678 1-303): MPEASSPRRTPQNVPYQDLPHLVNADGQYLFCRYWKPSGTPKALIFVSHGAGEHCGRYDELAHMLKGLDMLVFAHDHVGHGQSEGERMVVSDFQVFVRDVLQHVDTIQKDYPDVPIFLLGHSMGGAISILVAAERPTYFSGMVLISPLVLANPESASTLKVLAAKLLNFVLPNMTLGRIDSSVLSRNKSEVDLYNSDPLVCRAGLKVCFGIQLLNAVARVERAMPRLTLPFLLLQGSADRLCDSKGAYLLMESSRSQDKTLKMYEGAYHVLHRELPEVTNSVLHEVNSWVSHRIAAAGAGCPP
assay procedure: In vitro competitive activity-based protein profiling (mouse), MAGL
Format: biochemical
test parameters: mouse brain membrane fraction or cell lysates, 30 min preincubation at 37° C, FP-Rh probe
endpoint label: IC50

>>> df
                                   compound      subject_of_test     test_result
0  O=C(O)C(=O)c1cc(CN2CCN(C(=O)OC(C(F)(F)F)C(F)(F)F)CC2)cc(C(F)(F)F)c1  MAGL (Mus musculus)        < 100 nM
1  COC(=O)c1cc(CN2CCN(C(=O)OC(C(F)(F)F)C(F)(F)F)CC2)ccc1N1CCOCC1  MAGL (Mus musculus)        < 100 nM
2  O=C(O)[C@@H]1CCCN1c1cc(CN2CCN(C(=O)OC(C(F)(F)F)C(F)(F)F)CC2)ccc1C(F)(F)F  MAGL (Mus musculus)  100 to 1000 nM
3  O=C(OC(C(F)(F)F)C(F)(F)F)N1CCN(Cc2ccc(C(F)(F)F)c(N3CCC(CO)C3)c2)CC1 (centres unmarked)  MAGL (Mus musculus)  100 to 1000 nM
4  O=C(O)C(=O)c1cc(CN2CCN(C(=O)OC(C(F)(F)F)C(F)(F)F)CC2)ccc1C(F)(F)F  MAGL (Mus musculus)        < 100 nM

====

# inhibition at 5 mg/kg listing for each entry below
subject of test: MAGL (Mus musculus, UniProt O35678)
Construct: Proteomes (mouse brain membrane fraction or cell lysates); from tissue; host or cells: mouse brain membrane fraction (or unspecified cell lysates)
Sequence (O35678 1-303): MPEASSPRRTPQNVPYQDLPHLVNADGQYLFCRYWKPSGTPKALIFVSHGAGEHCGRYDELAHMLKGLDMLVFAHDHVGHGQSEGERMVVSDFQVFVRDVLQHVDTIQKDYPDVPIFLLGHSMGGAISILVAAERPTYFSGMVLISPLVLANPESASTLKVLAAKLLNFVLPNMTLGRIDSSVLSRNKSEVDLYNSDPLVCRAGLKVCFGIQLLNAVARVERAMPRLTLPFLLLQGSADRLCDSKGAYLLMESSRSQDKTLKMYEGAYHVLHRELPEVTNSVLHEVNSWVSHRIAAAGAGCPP
assay procedure: Mouse brain proteomes from inhibitor treated mice, MAGL
Assay type: in vivo
test parameters: 5 mg/kg oral gavage, C57Bl/6J mice, brain proteome 4 h after administration
endpoint label: inhibition at 5 mg/kg

>>> print(df.to_string())
                                   compound  test_result
0  CS(=O)(=O)N[C@H]1CCN(c2cc(C(F)(F)F)ccc2CN2CCN(C(=O)OC(C(F)(F)F)C(F)(F)F)CC2)C1        > 75%
1  CS(=O)(=O)N[C@@H]1CCN(c2cc(C(F)(F)F)ccc2CN2CCN(C(=O)OC(C(F)(F)F)C(F)(F)F)CC2)C1        > 75%
2  O=C(OC(C(F)(F)F)C(F)(F)F)N1CCN(Cc2ccc(Cl)cc2N2CC[C@H](CF)C2)CC1        > 75%
3  O=C(O)[C@@H]1CCCN1c1cc(CN2CCN(C(=O)OC(C(F)(F)F)C(F)(F)F)CC2)cc(C(F)(F)F)c1        > 75%
4  CS(=O)(=O)N[C@@H]1CCN(c2cc(Cl)ccc2CN2CCN(C(=O)OC(C(F)(F)F)C(F)(F)F)CC2)C1        > 75%
5  O=C(OC(C(F)(F)F)C(F)(F)F)N1CCN(Cc2ccc(Cl)cc2N2CC[C@@H](N3CCCCC3=O)C2)CC1    25 to 75%
6  Cc1cccc(CN2CCN(C(=O)OC(C(F)(F)F)C(F)(F)F)CC2)c1N1CC[C@H](CF)C1        > 75%
7  O=C(OC(C(F)(F)F)C(F)(F)F)N1CCN(Cc2cccc(OC(F)(F)F)c2N2CCC(N3CCCC3)CC2)CC1        < 25%
8  O=C(OC(C(F)(F)F)C(F)(F)F)N1CCN(Cc2ccc(CN3CCOCC3)cc2OC(F)(F)F)CC1        > 75%
9  O=C(OC(C(F)(F)F)C(F)(F)F)N1CCN(Cc2ccc(Cl)cc2N2CC[C@@H](N3CCCS3(=O)=O)C2)CC1    25 to 75%
